- tested.on: UniProt P30518
- Sequence (P30518 whole entry): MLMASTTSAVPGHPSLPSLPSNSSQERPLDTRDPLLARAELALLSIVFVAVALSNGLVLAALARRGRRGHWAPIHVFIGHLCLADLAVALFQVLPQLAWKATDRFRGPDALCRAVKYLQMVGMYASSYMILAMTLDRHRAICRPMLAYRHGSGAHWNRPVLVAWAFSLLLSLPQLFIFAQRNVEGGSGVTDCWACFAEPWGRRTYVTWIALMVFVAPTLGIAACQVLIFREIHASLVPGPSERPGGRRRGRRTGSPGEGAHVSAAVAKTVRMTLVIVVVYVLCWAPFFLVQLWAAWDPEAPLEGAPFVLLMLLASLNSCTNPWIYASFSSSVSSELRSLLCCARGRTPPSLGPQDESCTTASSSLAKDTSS
quantity.name: AC50

Solved cases (3 shown):
CN1C(=O)OC(C)(C)C1=O | > 10 µM
CC(C)C[C@H]1C(=O)N2CCC[C@H]2[C@]2(O)O[C@](NC(=O)[C@@H]3C=C4c5cccc6[nH]c(Br)c(c56)C[C@H]4N(C)C3)(C(C)C)C(=O)N12 | > 30 µM
CC(Oc1c(Cl)cccc1Cl)C1=NCCN1 (stereo unspecified) | > 30 µM

Exercise: // map `Cc1nc([N+](=O)[O-])cn1-c1ccc([N+](=O)[O-])cc1` to recorded AC50 (system: UniProt P30518)
Key: > 30 µM

Exercise: // map CCCN1C[C@H](CSC)C[C@@H]2c3cccc4[nH]cc(c34)C[C@H]21 [PERGOLIDE] to recorded AC50 (system: UniProt P30518)
Key: > 30 µM

Exercise: // map `C#C[C@]1(O)CC[C@H]2[C@@H]3CCC4=Cc5oncc5C[C@]4(C)[C@H]3CC[C@@]21C` to recorded AC50 (system: UniProt P30518)
Key: > 10 µM

Exercise: // map CN(C)CCC(c1ccc(Cl)cc1)c1ccccn1 (stereo unspecified) to recorded AC50 (system: UniProt P30518)
Key: > 30 µM

Exercise: // map `CC(C)Cn1cnc2c(N)nc3ccccc3c21` to recorded AC50 (system: UniProt P30518)
Key: > 10 µM
